- system: cat T1R1/T1R3 receptor (Felis catus)
- assay method text: cell-based
- study conditions: EC50-with Ala (mM), in the presence of 20 mM alanine
observation type: EC50

Memo: O=P(O)(O)OCC1OC(n2cnc3c(Nc4ccccc4)ncnc32)C(O)C1O (stereo not shown) , reported EC50: > 1 mM

====

- system: T1R1/T1R3 receptor (Felis catus, UniProt E3UMS2)
- assay method text: Example 8: agonist screening of transmembrane compounds on T1R1/T1R3 in HEK293 cells
- Type: cell-based, cat
- study conditions: transmembrane compound tested at 0.01, 0.1 and 1 mM; HEK293 cells expressing T1R1/T1R3; calcium dye and/or luminescent reporter
observation type: T1R1/T1R3 agonist

>>> result("COC(=O)C(NCc1ccccc1)c1ccccc1 (stereo not shown) [Formula 19, Methyl-2-benzylamino-2-phenylacetate]")
"Yes"
>>> result("O=C(CN1C(=O)C(=O)N(Cc2ccccc2)C1=O)c1ccc2c(c1)OCCCO2")
"No"
>>> result("O=C(CN1C(=O)C(=O)N(Cc2ccccc2)C1=O)c1ccc(Cl)s1")
"No"
>>> result("O=C(CN1C(=O)C(=O)N(Cc2ccccc2)C1=O)c1ccc(Br)cc1")
"No"

====

Overview of reported Thres +IMP (0.2 mM) across a group of molecules:
- system: T1R1/T1R3 receptor (Felis catus)
- Type: cell-based
- study conditions: threshold in the presence of 0.2 mM IMP; CNBD = Could not be determined
Write the value in mM as a bare number.

>>> result("N[C@@H](Cc1ccccc1)C(=O)O [L-Phenylalanine, reference compound]")
0.1
>>> result("O=C(NCCc1ccccc1)c1cccnc1 [N-phenethylnicotinamide]")
0.03
>>> result("COC(=O)[C@H](Cc1ccccc1)NCc1ccccc1")
0.003
>>> result("CCCCc1nn(CC(=O)N2CCCC2)c(=O)n1Cc1ccccc1")
0.1
>>> result("N[C@@H](CO)C(=O)O")
3.0
>>> result("N[C@@H](CS)C(=O)O")
10.0
>>> result("C[C@H](N)C(=O)O [L-Alanine, reference compound]")
3.0

GET /value?item= CCOC(=O)NC(=O)C(c1ccccc1)c1ccccc1 [Ro 01-6128, reference compound] &field=Thres +IMP (0.2 mM) returns 0.01

====

- system: T1R1/T1R3 receptor (Felis catus, UniProt E3UMS2)
- assay method text: cell-based
- Type: cell-based
- study conditions: in the presence of 20 mM alanine; relative to IMP
observation type: Max resp % of IMP +Alanine (20 mM) (%)
Numeric only. Scale: %

Sample records with Max resp % of IMP +Alanine (20 mM):
>>> result("COc1ccc(C(=O)NC(C)c2ccccc2)cc1C (stereo not drawn)")
41.0
>>> result("O=C(NCCc1ccccc1)C(=O)NCc1cccnc1")
30.2
>>> result("O=C(Nc1ccccc1Br)N[C@@H]1c2ccccc2C[C@@H]1O (stereo in doubt)")
33.0
>>> result("CCOC(=O)C(NC(=O)c1ccc2c(c1)OCO2)C(C)C (stereo not drawn)")
25.6

Field Max resp % of IMP +Alanine (20 mM) (T1R1/T1R3 receptor (Felis catus, UniProt E3UMS2)), entry `CCC(CC)NC(=O)/C=C/c1ccc(OC)cc1` : 64.1

Field Max resp % of IMP +Alanine (20 mM) (T1R1/T1R3 receptor (Felis catus, UniProt E3UMS2)), entry COC(=O)C(NC(=O)/C=C/c1cccs1)C(C)C (stereo not drawn) : 9.5

Entry CCCC(C)NC(=O)/C=C/c1ccc(OC)c(OC)c1 (stereo not drawn) : Max resp % of IMP +Alanine (20 mM) on T1R1/T1R3 receptor (Felis catus, UniProt E3UMS2) = 35.2

Hey, T1R1/T1R3 receptor (Felis catus, UniProt E3UMS2) data for `O=C(CN1C(=O)C(=O)N(Cc2ccccc2)C1=O)c1ccccc1` : Max resp % of IMP +Alanine (20 mM) came out at 127.6

Reported T1R1/T1R3 receptor (Felis catus, UniProt E3UMS2) Max resp % of IMP +Alanine (20 mM) for item `CCC(CC)NC(=O)c1ccc2c(c1)OCCO2` was 25.2

====

- system: T1R1/T1R3 receptor (Felis catus)
- assay method text: cell-based
- Assay type: cell-based
- study conditions: in the presence of 20 mM alanine
observation type: Thres (mM) +Alanine (20 mM)
I only need the number, in mM, no unit after it.

>>> result("CCC(CC)NC(=O)c1ccc(C)c(C)c1 [3,4-dimethyl-N-(pentan-3-yl)benzamide]")
3
>>> result("CC1CCCC(NC(=O)c2ccc3c(c2)OCO3)C1C (stereo not drawn)")
3
>>> result("COc1ccc(C(=O)NC(C)c2ccccc2)cc1C (stereo not drawn)")
3
>>> result("COc1ccc(/C=C/C(=O)NC2CCCCC2C)cc1 (stereo not drawn)")
3
>>> result("O=C(CN1C(=O)C(=O)N(Cc2ccccc2)C1=O)c1ccccc1")
1
>>> result("CCC(CC)NC(=O)c1ccc(Br)o1")
1
>>> result("O=C(NCCc1ccccc1)C(=O)NCc1cccnc1")
1
>>> result("CCC(CC)NC(=O)c1ccc2c(c1)OCCO2")
0.3
>>> result("O=C(Nc1ccccc1Br)N[C@@H]1c2ccccc2C[C@@H]1O (stereo in doubt)")
3
>>> result("CCC(CC)NC(=O)/C=C/c1ccc(OC)cc1")
0.148

Lab book: Thres (mM) +Alanine (20 mM) of CCCC(C)NC(=O)/C=C/c1ccc(OC)c(OC)c1 (stereo not drawn) noted as 1

response.value for CCOC(=O)C(NC(=O)c1ccc2c(c1)OCO2)C(C)C (stereo not drawn) (field: Thres (mM) +Alanine (20 mM)) = 10

====

- system: T1R1/T1R3 receptor (Felis catus, UniProt E3UMS2)
- assay method text: cell-based
- Format: cell-based
- study conditions: in the presence of 0.2 mM IMP; relative to Ala
observation type: Max resp % of Ala +IMP (0.2 mM) (%)
Please reply with the bare figure in % and do not write the unit itself.

Known Max resp % of Ala +IMP (0.2 mM) results, listed for orientation:
>>> result("O=C(CN1C(=O)C(=O)N(Cc2ccccc2)C1=O)c1ccccc1")
135.7
>>> result("COc1ccc(C(=O)NC(C)c2ccccc2)cc1C (stereo not drawn)")
95.6
>>> result("CCCC(C)NC(=O)/C=C/c1ccc(OC)c(OC)c1 (stereo not drawn)")
86.9
>>> result("CCC(CC)NC(=O)c1ccc(Br)o1")
149.6
>>> result("CSc1ccc(-c2nnn(Cc3ccccn3)n2)cc1")
80.7
>>> result("CCC(CC)NC(=O)c1ccc2c(c1)OCCO2")
70.9

Query CCOC(=O)C(NC(=O)c1ccc2c(c1)OCO2)C(C)C (stereo not drawn) on T1R1/T1R3 receptor (Felis catus, UniProt E3UMS2); Max resp % of Ala +IMP (0.2 mM) returned: 52.8

Tested system T1R1/T1R3 receptor (Felis catus, UniProt E3UMS2); Max resp % of Ala +IMP (0.2 mM) recorded for O=C(Nc1ccccc1Br)N[C@@H]1c2ccccc2C[C@@H]1O (stereo in doubt) was 44.9

Item COC(=O)C(NC(=O)/C=C/c1cccs1)C(C)C (stereo not drawn) was tested on T1R1/T1R3 receptor (Felis catus, UniProt E3UMS2); the reported Max resp % of Ala +IMP (0.2 mM) is 59.9

Test item COc1ccc(/C=C/C(=O)NC2CCCCC2C)cc1 (stereo not drawn) ; T1R1/T1R3 receptor (Felis catus, UniProt E3UMS2); reported Max resp % of Ala +IMP (0.2 mM) was 144.0

Lab note: molecule CCC(CC)NC(=O)c1ccc(C)c(C)c1 [3,4-dimethyl-N-(pentan-3-yl)benzamide] tested on T1R1/T1R3 receptor (Felis catus, UniProt E3UMS2); recorded Max resp % of Ala +IMP (0.2 mM) was 125.7

====

- system: cat T1R1/T1R3 receptor (Felis catus, UniProt E3UMS2)
- assay method text: cell-based
Counter-ions that a name gives are not always drawn.
observation type: Thres

>>> result("O=P(O)(O)OC[C@H]1O[C@@H](n2cnc3c(Cl)ncnc32)C(O)C1O (some centres unmarked)")
"0.0005 mM"
>>> result("Nc1nc2c(ncn2[C@@H]2O[C@H](COP(=O)(O)OP(=O)(O)OP(=O)(O)O)[C@@H](O)[C@H]2O)c(=O)[nH]1 [Guanosine 5′-triphosphate]")
"0.175 mM"
>>> result("Nc1ncnc2c1ncn2C1OC(COP(=O)(O)OS(=O)(=O)O)C(O)C1O (centres unmarked) [Adenosine 5′-phosphosulfate sodium salt, Adenosine 5′-phosphosulfate]")
"0.008 mM"

In plain terms, `O=P(O)(O)OC[C@H]1O[C@@H](n2cnc3c2ncn2ccnc32)C[C@@H]1O` has a documented Thres of 0.05 mM

Entry NC(=O)c1ncn(C2OC(COP(=O)(O)O)C(O)C2O)c1N (centres unmarked) ; Thres = 0.200 mM

Measured Thres, Nc1ncnc2c1ncn2C1OC(COP(O)(O)=S)C(O)C1O (centres unmarked) : 0.003 mM

// field: Thres; key: O=c1ccn([C@H]2O[C@@H](COP(=O)(O)O)[C@H](O)[C@@H]2O)c(=O)[nH]1 (stereo in doubt) [Uridine 5′-monophosphate disodium salt, reference compound] ; value = 3.000 mM

Looking up Nc1ncnc2c1ncn2[C@H]1CC(OP(=O)(O)O)[C@@H](COP(=O)(O)O)O1 (some centres unmarked) [2′-Deoxyadenosine-3′,5′-O-bisphosphate] , I found its Thres recorded as 0.005 mM
